Where do the numbers come from? From patent EP4671273A1.

Task for the reader: assign each of the following binders its reported kon.
Target system: T1, cynomolgus PD-1 (#PD1-C52H5, AcroBiosystems) (cynomolgus monkey, UniProt B0LAJ3 25-170)
T1 construct: bought; also called cynomolgus monkey PD-1; not shown: the vendor's tag on the recombinant protein (AcroBiosystems #PD1-C52H5)
T1 sequence (B0LAJ3 entry or part of it limits assumed, form in doubt): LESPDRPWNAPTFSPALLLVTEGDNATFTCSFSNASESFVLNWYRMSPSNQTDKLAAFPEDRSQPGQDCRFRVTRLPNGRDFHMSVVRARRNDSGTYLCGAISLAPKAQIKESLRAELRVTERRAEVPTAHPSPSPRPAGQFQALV
Procedure text: SPR, PD-1 on captured IgG1
Give bare numbers, in M⁻¹ s⁻¹.

Answered examples (2):
WAZ460 (antibody, human IgG1, V domains shown, human IgG1) VH: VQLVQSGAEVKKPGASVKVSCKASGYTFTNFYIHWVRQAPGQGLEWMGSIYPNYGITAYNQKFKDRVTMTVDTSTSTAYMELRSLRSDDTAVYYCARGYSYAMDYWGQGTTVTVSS VL: DIQMTQSPSSVSASVGDRVTITCRASQGISGDLNWYQQKPGKAPKLLIYHTSQLHSDVPSRFSGSGSGTDFTLTISSLQPEDFATYYCQGYSKDLLTFGGGTKLEIK | 485000
BBJ602 (antibody, human IgG1, V domains shown, human IgG1) VH: VQLVQSGAEVKKPGASVKVSCKASGYTFTNFYIHWVRQAPGQGLEWMGSIYPNYGITAYNQKFKDRVTMTVDTSTSTAYMELRSLRSDDTAVYYCARGYSYGMDYWGQGTTVTVSS VL: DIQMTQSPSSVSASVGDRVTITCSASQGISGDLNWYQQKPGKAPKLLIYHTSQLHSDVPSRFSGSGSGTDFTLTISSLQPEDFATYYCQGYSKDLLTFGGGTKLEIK | 3.69e+08

// returns reported kon for input PEV057 (antibody, human IgG1, V domains shown, human IgG1) VH: VQLVQSGAEVKKPGASVKVSCKASGYTFTNFYIHWVRQAPGQGLEWMGSIYPNYGITAYNQKFKDRVTMTVDTSTSTAYMELRSLRSDDTATYYCARGYSYAMDYWGQGTTVTVSS VL: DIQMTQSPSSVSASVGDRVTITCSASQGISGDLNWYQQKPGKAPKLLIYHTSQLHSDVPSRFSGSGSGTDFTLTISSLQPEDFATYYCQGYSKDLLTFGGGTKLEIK
489000
